# Test system: HPPD polypeptides
# measurement-description: coupled HPPD activity assay: turnover and residual turnover in crude extracts
# Assay type: biochemical, Pseudomonas fluorescens
# experimental-setup: 100 μM Cmpd. 1; signal change with inhibitor divided by signal change without inhibitor
measurement-type: Residual turnover [%] (%)
Please respond with the number in % and leave the unit unwritten.

INSERT INTO measurements (molecule, result_number) VALUES
  ('36 (protein, mutant HPPD polypeptide) MADLYENPMGLMGFEFIEFASPTPGTLEPIFEIMGFTKVATHRSKNVHLYRQGEINLILNNEPNSIASYFAAEHGPSVCGMAFRVKDSQKAYNRALELGAQPIHIDTGPMELNLPAIKGIGGAPLYLIDRFGEGSSIYDIDFVYLEGVERNPVGAGLKVIDHLTHNVYRGRMVYWANFYEKLFNFREARYFDIKGEYTGLTSKAMSAPDGMIRIPLNEESSKGAGQIEEFLMQFNGEGIQHVAFLTDDLVKTWDALKKIGMRFMTAPRDNYYEMLEGRLPDHGEPVDQLQARGILLDGSSVEGDKRLLLQIFSETLMGPVFFEFIQRKGDDGFGPHSFKVLFESVERDQVRRGVLTAD', 61);

According to the records, this molecule 11 (protein, mutant HPPD polypeptide) MADLYENPMGLMGFEFIEFASPTPGTLEPIFEIMGFTKVATHRSKNVHLYRQGEINLILNNEPNSIASYFAAEHGPSVCGMAFRVKDSQKAYNRALELGAQPIHIDTGPMELNLPAIKGIGGAPLYLIDRFGEGSSIYDIDFVYLEGVERNPVGAGLKVIDHLTHNVYRGRMVYWANFYEKLFNFREARYFDIKGEYTGLTSKAMSAPDGMIRIPLNEESSKGAGQIEEFLMQFNGEGIQHVAFLTDDLVKTWDALKKIGMRFMTAPPDTYYEMLEGRLPDHGEPVDQLQARGILLDGSSVEGDKRLLLQIFSETLMGPVFFEFIQRKGDDGFGPDSFKVLFESVERDQVRRGVLTAD displays Residual turnover [%] of 44

Data credit: patent US11180770B2
